// values below are reported composite z-score
Tested on: XIP peptide (Xip251-270) binding
Experiment: XIP fragment 251-270 binding compounds – biochemical, small-molecule microarray, fluorescence 635/667 nm, 0.1 µg/mL protein, primary screen (AID 1182)
Conditions: fluorescent protein binding, 635 nm, higher = more signal, called active from +8 up or from −8 down

- MOLECULE: "COCC(=C=CC[C@H](O)c1ccc(OCCO)cc1)CCO"
  composite z-score: 0.407
- MOLECULE: "COC(=O)C1=CC(CCCO)=CC(c2ccc(CN3CCCC3)cc2)N(Cc2cccc(OC(F)(F)F)c2)C=C1C(=O)OC (stereo not drawn)"
  composite z-score: 1.68
- MOLECULE: "COc1ccc(C#Cc2ccc3c(c2)[C@]2(C(=O)N3)[C@H](c3ccc(O)cc3)N3[C@H](c4ccccc4)[C@H](c4ccccc4)OC(=O)[C@H]3[C@@H]2C(=O)Nc2nc3ccccc3s2)cc1"
  composite z-score: -0.52
- MOLECULE: "COc1cc2c(cc1O)C(C1CC1)N(Cc1cccc(OC(F)(F)F)c1)CC2 (stereo not drawn)"
  composite z-score: 0.676
- MOLECULE: "C=C(COC)C(=O)CC[C@@H](OC(C)=O)c1cccc(OCCO)c1"
  composite z-score: 0.309
- MOLECULE: "[N-]=[N+]=Nc1ccccc1C[C@]1(C(=O)O)COC(c2ccc(OCCCO)cc2)=N1"
  composite z-score: 1.09
- MOLECULE: "COCC(=C=CC[C@H](O)c1ccccc1OCCO)C[C@H](O)c1ccccn1"
  composite z-score: -0.488
- MOLECULE: "CCOC(=O)C[C@H]1[C@H](OC(=O)c2ccc(C(=O)c3ccccc3)cc2)[C@@H](NC(=O)c2ccc(-c3ccccc3)cc2)c2cc(OCCCO)ccc2N1C(=O)Cc1ccc(OC)cc1"
  composite z-score: -0.555

====

Target: Streptavidin (Streptomyces avidinii)
Assay: compounds binding control protein streptavidin – biophysical, small-molecule microarray, 635/667 nm fluorescence, artefact control for SMM compound annotation, primary screen (AID 1147);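 further: signal reflects streptavidin binding to arrayed compounds as a control protein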
Conditions: higher = more signal
Class key for composite z-score values: Low: < -0.3; Medium: ≥ -0.3 and < 0.6; High: ≥ 0.6

- MOLECULE: "C=C(COC)/C(=C/C[C@H](OC(=O)c1ccncc1)c1ccccc1OCCO)c1cc(C(=O)OC)ccc1OC"
  MEASUREMENT_TARGET: "Streptavidin (Streptomyces avidinii)"
  LABEL: "Medium"
- MOLECULE: "CC1=C2[C@@H](CCc3ccccc3)OB(O)C[C@@H]2[C@@H]2C(=O)N(C)C(=O)[C@@H]2C1"
  MEASUREMENT_TARGET: "Streptavidin (Streptomyces avidinii)"
  LABEL: "Medium"
- MOLECULE: "COC(=O)[C@@]1(Cc2ccc(F)cc2)[C@H]2c3cc(C(=O)N4CCCC4)n(Cc4ccc(C)c(F)c4F)c3C[C@H]2CN1C(=O)c1ccccc1"
  MEASUREMENT_TARGET: "Streptavidin (Streptomyces avidinii)"
  LABEL: "Medium"
- MOLECULE: "COCCOC(=O)N1C(=O)[C@@]2(c3cc(C#CCCO)ccc31)[C@H](c1ccc(OCCO)cc1)N1[C@H](c3ccccc3)[C@H](c3ccccc3)OC(=O)[C@H]1[C@@H]2C(=O)Nc1nc2ccccc2s1"
  MEASUREMENT_TARGET: "Streptavidin (Streptomyces avidinii)"
  LABEL: "High"
- MOLECULE: "CC(C)C(CO)N1C(=O)[C@@H]2C3C(=O)OCCC/C=C\\[C@H]3OC23C=CCN(Cn2nnc4ccccc42)C(=O)[C@@H]13 (stereo not given in full)"
  MEASUREMENT_TARGET: "Streptavidin (Streptomyces avidinii)"
  LABEL: "Low"
- MOLECULE: "CCOC(=O)C[C@H]1[C@H](OC(=O)c2ccccc2-c2ccccc2)[C@@H](NC(=O)c2ccc3ccccc3c2)c2cc(OCCCO)ccc2N1C(=O)c1ccccc1"
  MEASUREMENT_TARGET: "Streptavidin (Streptomyces avidinii)"
  LABEL: "Medium"
- MOLECULE: "COc1ccc(C#Cc2ccc3c(c2)[C@]2(C(=O)N3)[C@H](c3ccc(O)cc3)N3[C@H](c4ccccc4)[C@H](c4ccccc4)OC(=O)[C@H]3[C@@H]2C(=O)Nc2nc3ccccc3s2)cc1"
  MEASUREMENT_TARGET: "Streptavidin (Streptomyces avidinii)"
  LABEL: "High"
- MOLECULE: "CCCCCCCCCC(O)C1C=CC2C(=O)N(c3ccccc3)C(=O)C2N1Nc1cc(OC)c(OC)c(OC)c1 (stereo not given)"
  MEASUREMENT_TARGET: "Streptavidin (Streptomyces avidinii)"
  LABEL: "Medium"
- MOLECULE: "CCCCCN1CC=CC23O[C@@H]4C=CCCOC(=O)C4[C@H]2C(=O)N(CCCCCCO)[C@@H]3C1=O (stereo not given in full)"
  MEASUREMENT_TARGET: "Streptavidin (Streptomyces avidinii)"
  LABEL: "Low"
- MOLECULE: "O=C1OCCC=C[C@H]2OC34C=CCN(Cn5nnc6ccccc65)C(=O)[C@H]3N(CCCO)C(=O)[C@@H]4C12 (stereo not given in full)"
  MEASUREMENT_TARGET: "Streptavidin (Streptomyces avidinii)"
  LABEL: "Low"
- MOLECULE: "COc1cc2c(cc1O)C(C1CC1)N(C)CC2 (stereo not given)"
  MEASUREMENT_TARGET: "Streptavidin (Streptomyces avidinii)"
  LABEL: "Low"
- MOLECULE: "Cc1ccccc1C(O)C1C=CC2C(=O)NC(=O)C2N1Nc1ccccn1 (stereo not given)"
  MEASUREMENT_TARGET: "Streptavidin (Streptomyces avidinii)"
  LABEL: "Medium"
- MOLECULE: "CN1C2C=C(CCCO)C(C3C(=O)N(C(N)=O)C(=O)C32)C1C1CC1 (stereo not given)"
  MEASUREMENT_TARGET: "Streptavidin (Streptomyces avidinii)"
  LABEL: "Medium"
- MOLECULE: "C=CCN1Cc2ccccc2[C@@H]2OC(c3ccc(OCCCO)cc3)=N[C@]2(CC=C)C1=O"
  MEASUREMENT_TARGET: "Streptavidin (Streptomyces avidinii)"
  LABEL: "Medium"
- MOLECULE: "CCOC(=O)C1=CC[C@@H](c2ccccc2F)N(S(=O)(=O)c2ccc(C)cc2)[C@H]1c1ccccc1"
  MEASUREMENT_TARGET: "Streptavidin (Streptomyces avidinii)"
  LABEL: "High"

====

Assay: JC-1 mitochondrial potential readout, lung cancer cells – cell-based, A549, JC-1 fluorescence, basal, 24 h, 100 nL, profiling panel (AID 1138);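 further: A549 lung adenocarcinoma cells under basal conditions with no added stimulus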
Settings: higher = more signal
ATTRIBUTE_MEASURED: z-score

- COMPOUND: "COc1cc(OC)c(C(O)C2C=CC3C(=O)N(Cc4ccccc4)C(=O)C3N2n2cnnc2)cc1Br (stereo unspecified)"
  ATTRIBUTE_MEASURED: "z-score"
  ASSAY_RESULT: -1.08
- COMPOUND: "Cn1cccc1C(O)C1C=CC2C(=O)N(c3ccccc3)C(=O)C2N1Nc1ccccc1 (stereo unspecified)"
  ATTRIBUTE_MEASURED: "z-score"
  ASSAY_RESULT: 0.569
- COMPOUND: "COCCOC(=O)N1C(=O)[C@@]2(c3cc(C#CC4(O)CCCCCC4)ccc31)[C@H](C(=O)N1CCc3cc(OC)c(OC)cc3C1)[C@H]1C(=O)O[C@H](c3ccccc3)[C@H](c3ccccc3)N1[C@@H]2c1ccc(OCCO)cc1"
  ATTRIBUTE_MEASURED: "z-score"
  ASSAY_RESULT: -1.11
- COMPOUND: "C=CCC(OC(C)=O)[C@@H]1[C@@H](N(Cc2ccc(-c3cccc(C(F)(F)F)c3)o2)C(=O)c2ccc(-c3ccccc3)cc2)c2cc(OCCCO)ccc2N1C(=O)Cc1ccc2ccccc2c1 (stereo partly specified)"
  ATTRIBUTE_MEASURED: "z-score"
  ASSAY_RESULT: 0.0819
- COMPOUND: "COC(=O)[C@@]1(Cc2ccc(OC)cc2)[C@H]2c3cc(C(=O)N4CCCC4)n(CCO)c3C[C@H]2CN1C(=O)c1ccccc1"
  ATTRIBUTE_MEASURED: "z-score"
  ASSAY_RESULT: -0.117
- COMPOUND: "CCOC(=O)C[C@H]1[C@H](OC(=O)c2cc3ccccc3oc2=O)[C@@H](NC(=O)c2ccccc2)c2cc(OCCCO)ccc2N1C(=O)c1ccccc1"
  ATTRIBUTE_MEASURED: "z-score"
  ASSAY_RESULT: -0.816

====

Target: Homeobox protein Hox-A13 (Mus musculus) (UniProt Q62424)
Sequence (Q62424 whole entry, looked up): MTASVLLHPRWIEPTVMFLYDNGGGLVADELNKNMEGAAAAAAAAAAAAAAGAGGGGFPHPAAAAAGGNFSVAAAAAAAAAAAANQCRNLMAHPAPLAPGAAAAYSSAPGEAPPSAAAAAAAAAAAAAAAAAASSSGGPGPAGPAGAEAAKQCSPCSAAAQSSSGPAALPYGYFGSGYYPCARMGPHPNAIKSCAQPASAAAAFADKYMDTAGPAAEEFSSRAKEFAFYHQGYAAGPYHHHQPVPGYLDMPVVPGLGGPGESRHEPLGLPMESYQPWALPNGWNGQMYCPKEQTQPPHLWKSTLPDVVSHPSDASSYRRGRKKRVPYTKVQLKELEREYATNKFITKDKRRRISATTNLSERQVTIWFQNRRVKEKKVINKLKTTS
Assay: disruptors of Hoxa13 oligonucleotide interaction – biochemical, fluorescence polarization, labeled oligonucleotide, primary screen (AID 1185)
Conditions: Hoxa13:DNA binding, 15 min, higher = more signal, called active from +8 up or from −8 down

- SMILES_NOTATION: "CCCC[C@@H](O)C1=C(COC)C[C@H]2C(=O)N(Cc3ccccc3)C(=O)[C@H]2[C@H]1CO"
  MEASUREMENT_TARGET: "Homeobox protein Hox-A13 (Mus musculus) (UniProt Q62424)"
  z-score: -4.13
- SMILES_NOTATION: "C=CCOC(=O)[C@@H]1[C@H]2C(=O)O[C@H](c3ccccc3)[C@H](c3ccccc3)N2[C@H](c2ccc(OCCOC(=O)[C@@H]3C[C@@H]4C(=O)N[C@@H](CCCC[N+](C)(C)C)C(=O)N4[C@@H]3c3ccc(O)cc3)cc2)[C@@]12C(=O)Nc1ccc(I)cc12"
  MEASUREMENT_TARGET: "Homeobox protein Hox-A13 (Mus musculus) (UniProt Q62424)"
  z-score: 6.56
- SMILES_NOTATION: "CN(C)C(=O)[C@@]1(Cc2ccccc2CN=[N+]=[N-])N=C(c2ccc(OCCCO)cc2)O[C@H]1c1ccccc1N=[N+]=[N-]"
  MEASUREMENT_TARGET: "Homeobox protein Hox-A13 (Mus musculus) (UniProt Q62424)"
  z-score: -0.638
